Biological target: T1, HLA-A*02:01 (human)
T1 construct: Captured on streptavidin plates and detected with anti-b2m; also called peptide-receptive MHC molecules; MHC class I
Assay: UV-ligand exchange, anti-b2m ELISA; peptide exchange yield grade (+ >=10%, ++ >=20%, +++ >=50, ++++ >=75%)

# Binder, peptide exchange yield
data = [
    ("ILASLATSV", "50 to 75%"),
    ("NLREGDQLL", "50 to 75%"),
    ("TASAITPSV", "50 to 75%"),
    ("NIIELVHQV", "≥ 75%"),
    ("KVVGKDYLL", "10 to 20%"),
    ("GLAPNTPGKA", "50 to 75%"),
    ("KVANIIAEV", "20 to 50%"),
    ("ATGNDRKEAAENSL", "50 to 75%"),
    ("KLIDDVHRL", "≥ 75%"),
    ("GLTDVIRDV", "≥ 75%"),
]
